# test_method_notes: Human HepG2 cell viability assay in 384 well format
# Format: toxicity, cell-based
# Design: dose 125 nL, time 70.5 hour; concentration not given beside the values
# condition_parameters: HepG2 cells, read-out: Inhibition
Listing of entries alongside the reported cytotoxicity at 70.5 h.
observable: cytotoxicity at 70.5 h (%)

molecule: CN(C)CCn1c2c(ccc1=O)CCN(C(=O)c1ccoc1)CC2
result_units: %
result: -1.95

molecule: Fc1cnc(N2CCO[C@H]3[C@H](OCCN4CCCC4)CC[C@@H]32)nc1
result_units: %
result: -8.48

molecule: CCN1CCC2(CC1)NC(=O)c1cc(Br)ccc1-n1nnnc12
result_units: %
result: -5.39

molecule: Fc1cccc(-c2nnn3c2COC(CNCc2cccs2)C3)c1 (configuration not stated)
result_units: %
result: 1.1

molecule: O=c1cc(N2CCCC2)cnn1CC(F)F
result_units: %
result: -6.13

molecule: O=C(O)[C@]12CCCN(Cc3cccs3)C[C@H]1CN(c1ncccn1)C2
result_units: %
result: -9.42

molecule: Cc1ccoc1C(=O)N1CCc2ccc(=O)n(CCN(C)C)c2CC1
result_units: %
result: -3.74

molecule: CCN(CC)Cc1nnc2sc(C(C)Oc3ccccc3)nn12 (configuration not stated)
result_units: %
result: 4.82

molecule: CC(C)NC(=O)N1CC(=O)c2sc(Nc3ccc(C#N)cc3)nc2C1
result_units: %
result: -7.13

molecule: COc1ccccc1CCNC(=O)N1CCC(n2cncn2)CC1
result_units: %
result: -7.07

molecule: O=C(Cc1cccnc1)N1CCC2(CCN(C3CCOC3)CC2)C1 (configuration not stated)
result_units: %
result: 20.9

molecule: CC(NC(=O)NCCCc1n[nH]c(N)c1C#N)c1ccc(F)c(F)c1 (configuration not stated)
result_units: %
result: -2.56

molecule: CCN1CC(C(=O)NCc2noc(Cc3ccccc3)n2)CCC1=O (configuration not stated)
result_units: %
result: -12.4

molecule: O=S(=O)(c1ccccc1)N1CCC2(CCCN2CC2CCCC2)C1 (configuration not stated)
result_units: %
result: -5.67

molecule: Cc1nc(CN(C)C2CCN(CCc3cnn(C)c3)C2)no1 (configuration not stated)
result_units: %
result: 18.2

molecule: CCN(CC)C(=O)CN1CCC(c2nc(C)c3c(n2)N(C)CCC3)CC1
result_units: %
result: 17.6

molecule: COc1ccc(F)c(CN2CCCC3(CCN(S(C)(=O)=O)C3)C2)c1 (configuration not stated)
result_units: %
result: -10.2

molecule: CC(C)COC(C)C(=O)NCCNS(C)(=O)=O (configuration not stated)
result_units: %
result: -7.36

molecule: Cc1nc(C)c(CN2CCOC[C@H](Oc3ccccc3)C2)s1
result_units: %
result: -10.6

molecule: CCn1nc(CNC(=O)C2CCCN(CC(N)=O)C2)c2ccccc21 (configuration not stated)
result_units: %
result: -14.9

molecule: O=C(c1ccccc1)N1CCO[C@@H]2CN(c3cnccn3)C[C@@H]2C1
result_units: %
result: -12.3

molecule: CN(c1ccc(C(C)(C)C)cc1)S(=O)(=O)c1cc(C(=O)O)cs1
result_units: %
result: -10.9

molecule: Cn1cnnc1-c1ccnc(NCc2ccccc2)c1
result_units: %
result: -6.07

molecule: Cc1cccc2[nH]c(C3CCCN(Cc4ccc(CO)o4)C3)nc12 (configuration not stated)
result_units: %
result: 4.96

molecule: O=C1NC2(Cc3ccccc31)CN(CC1CCNCC1)C2
result_units: %
result: 12.6

molecule: c1cnc(N2CCOCC3(CCCN(CC4CC4)C3)C2)cn1 (configuration not stated)
result_units: %
result: -5.91

molecule: O=C(NCC1CCS(=O)(=O)C1)c1ccc2cccc(Cl)c2n1 (configuration not stated)
result_units: %
result: -5.5

molecule: OC(COCc1ccccc1Cl)CN1CCC(c2ccn[nH]2)CC1 (configuration not stated)
result_units: %
result: 1.38

molecule: Cc1ccc(C(=O)N(C)Cc2ccc3c(c2)OCO3)c(=O)[nH]1
result_units: %
result: -4.29

molecule: CCN(CC)CC(=O)N1CCN(CCc2ccncc2)CC1
result_units: %
result: -9.33

molecule: CO[C@H]1CO[C@@]2(CCCN(C(=O)N3CCCC3)C2)C1
result_units: %
result: 1.63

molecule: CCCS(=O)(=O)NCC(C)(O)c1ccsc1 (configuration not stated)
result_units: %
result: -4.32

molecule: COc1cn(CC(=O)N2CCN(c3ccc(F)cc3)CC2)c(C)cc1=O
result_units: %
result: 27.9

molecule: Cc1nnc(NC(=O)N2CCN(Cc3ccc(F)cc3)C(=O)C2)s1
result_units: %
result: 1.21

molecule: CC(C)CC(C)NCc1cccnc1N1CCN(c2ccccn2)CC1 (configuration not stated)
result_units: %
result: -12.3

molecule: CN(C1CCCCC1)S(=O)(=O)N1CCN(Cc2ccon2)CC1
result_units: %
result: -9.52

molecule: CCc1ccc(S(=O)(=O)Nc2c(C)cccc2C(=O)O)s1
result_units: %
result: 18.4

molecule: O=C1CN(c2ccc(CNC(=O)NCc3ccoc3)cc2)CCN1
result_units: %
result: -11.8

molecule: COc1c(CNCc2ccccc2Cn2ccnc2)c(C)nn1C
result_units: %
result: -0.234

molecule: CCOCCCNC(=O)C1(C)CCC(=O)N1Cc1ccccc1F (configuration not stated)
result_units: %
result: 0.95

molecule: Cc1ccc(OCCC(=O)NC2CCc3nc(C)cn3C2)cc1 (configuration not stated)
result_units: %
result: 2.29

molecule: Cc1ccc2cc(CN(C)Cc3ccccn3)c(=O)[nH]c2c1
result_units: %
result: 12.4

molecule: CCc1nc(C)sc1CN1C[C@@H](C)[C@@](C)(O)C1
result_units: %
result: -11.2

molecule: CN(C)C(CNC(=O)NCc1ccco1)c1cccs1 (configuration not stated)
result_units: %
result: -6.4

molecule: Cn1nc(C#N)c2c1CN(C(=O)c1ccsc1)CCC2
result_units: %
result: 5.67

molecule: Cn1cc(C(=O)N2CC[C@@H]3[C@@H]2CCN3Cc2cccc(F)c2)cn1
result_units: %
result: -6.38

molecule: O=S(=O)(NCC1CCN(c2cnccn2)CC1)c1ccc(F)c(Cl)c1
result_units: %
result: -1.36

* * *

Listing of entries alongside the reported cytotoxicity at 70.5 h.
# test_method_notes: Human HepG2 cell viability assay in 384 well format
# Assay type: toxicity, cell-based
# Parameters: dose 125 nL, time 70.5 hour; concentration not given beside the values
# condition_parameters: HepG2 cells, read-out: Inhibition
observable: cytotoxicity at 70.5 h (%)

molecule: CCN(CCOC)C(=O)CCc1scnc1C
result: -2.82
//
molecule: Cc1nn(C)c(C)c1-c1nc2cc(S(=O)(=O)N3CCCC3)ccc2n1C
result: -0.406
//
molecule: CC(C)c1nsc(N2CCOC3(CCCC3)C2)n1
result: -2.46
//
molecule: CN1CCC(N(Cc2ccccc2)C(=O)c2ccn3ccnc3c2)CC1
result: -2.58
//
molecule: Cc1cnc2n(c1=O)C(CC(=O)NCc1cccs1)CS2 (stereo unspecified)
result: 0.951
//
molecule: CC(C)(C)C(=O)NS(=O)(=O)c1ccc(F)cc1C(F)(F)F
result: -3.41

* * *

# test_method_notes: Human HepG2 cell viability assay in 384 well format
# Type: toxicity, cell-based
# Parameters: dose 125 nL, time 70.5 hour; concentration not given beside the values
# condition_parameters: HepG2 cells, read-out: Inhibition
Listing of entries alongside the reported cytotoxicity at 70.5 h.

compound: CCc1cnc(CN(C)C(=O)Nc2cnn(CC3CCCO3)c2)s1 (centres undefined)
cytotoxicity at 70.5 h / %: -4.76
//
compound: Cc1nc(Nc2ccccn2)cc(N2CCN(S(C)(=O)=O)CC2)n1
cytotoxicity at 70.5 h / %: 11.2
//
compound: Cc1nnc2n1CCN(Cc1ncc(-c3ccc(F)cc3)o1)C2
cytotoxicity at 70.5 h / %: -1.84
//
compound: CNS(=O)(=O)c1cccc(C(C)NCc2ccc(C)c(C)c2)c1 (centres undefined)
cytotoxicity at 70.5 h / %: 19.3
//
compound: CCCOc1ccc(Cl)cc1NC(=O)NCCC(=O)N(C)C
cytotoxicity at 70.5 h / %: 4.12
//
compound: O=C1CCCCN1CCCC(=O)N1CCC2(CC1)[C@H](O)C[C@@H]2O
cytotoxicity at 70.5 h / %: -4.17
//
compound: CCc1ncnc2c1CCN(Cc1ccccn1)CC2
cytotoxicity at 70.5 h / %: 28
//
compound: COc1ccc(C(=O)NCCCNc2ncccn2)c(OC)c1
cytotoxicity at 70.5 h / %: -7.46
//
compound: CCCOc1cccc(C(=O)N2CCCC(n3cncn3)C2)c1 (centres undefined)
cytotoxicity at 70.5 h / %: -13.7
//
compound: Cc1ccc(O)c(C(=O)N2CCC(CNC(=O)OC(C)(C)C)C2)c1 (centres undefined)
cytotoxicity at 70.5 h / %: -7.45
//
compound: CCNc1ccnc(N2CCN(Cc3ncccc3C)CC2)n1
cytotoxicity at 70.5 h / %: 3.6
//
compound: CN(C)c1nccc(C2CN(S(C)(=O)=O)C2)n1
cytotoxicity at 70.5 h / %: -1.11
//
compound: Cn1cccc1CN(C(=O)Cc1cccs1)C1CC1
cytotoxicity at 70.5 h / %: -2.78
//
compound: Cc1nc(NC(=O)CCc2c(C)nc3cc(O)nn3c2C)sc1C
cytotoxicity at 70.5 h / %: -16.5
//
compound: O=C(CCc1nc2cc(Br)cnc2[nH]1)NCc1cccnc1
cytotoxicity at 70.5 h / %: -17.1
//
compound: COc1cccc(CNC(=O)c2cccnc2SC(C)C)c1
cytotoxicity at 70.5 h / %: -5.9
//
compound: CC(C)NC(=O)[C@@H]1CCO[C@@H]2CCN(c3ncccn3)C[C@@H]21
cytotoxicity at 70.5 h / %: 0.956
//
compound: CC(C)=CCN1C[C@H]2CC[C@@H]1CN(S(=O)(=O)c1cccnc1)C2
cytotoxicity at 70.5 h / %: 6.15
//
compound: CCN(CC1CCOC1)C(=O)c1ccccc1S(=O)(=O)CC (centres undefined)
cytotoxicity at 70.5 h / %: 10.2
//
compound: CCCc1cc(C(=O)N[C@@H](CO)[C@@H](O)c2ccccc2)n(C)n1
cytotoxicity at 70.5 h / %: 0.909
//
compound: Cc1cc(C(=O)N2CC[C@@H]3CN(C)S(=O)(=O)[C@@H]3CC2)no1
cytotoxicity at 70.5 h / %: -7.25
//
compound: O=C(c1cnc2c(c1)CCC2)N1CCCC(CO)(CC2CC2)C1 (centres undefined)
cytotoxicity at 70.5 h / %: -9.59
//
compound: N#Cc1cn[nH]c1NCc1cc(Br)ccc1O
cytotoxicity at 70.5 h / %: -9.76
//
compound: CCSCc1cccc(NC2CCN(C)C2=O)c1 (centres undefined)
cytotoxicity at 70.5 h / %: 19.7
